subject of test: furin, P09958
Sequence (P09958 whole entry): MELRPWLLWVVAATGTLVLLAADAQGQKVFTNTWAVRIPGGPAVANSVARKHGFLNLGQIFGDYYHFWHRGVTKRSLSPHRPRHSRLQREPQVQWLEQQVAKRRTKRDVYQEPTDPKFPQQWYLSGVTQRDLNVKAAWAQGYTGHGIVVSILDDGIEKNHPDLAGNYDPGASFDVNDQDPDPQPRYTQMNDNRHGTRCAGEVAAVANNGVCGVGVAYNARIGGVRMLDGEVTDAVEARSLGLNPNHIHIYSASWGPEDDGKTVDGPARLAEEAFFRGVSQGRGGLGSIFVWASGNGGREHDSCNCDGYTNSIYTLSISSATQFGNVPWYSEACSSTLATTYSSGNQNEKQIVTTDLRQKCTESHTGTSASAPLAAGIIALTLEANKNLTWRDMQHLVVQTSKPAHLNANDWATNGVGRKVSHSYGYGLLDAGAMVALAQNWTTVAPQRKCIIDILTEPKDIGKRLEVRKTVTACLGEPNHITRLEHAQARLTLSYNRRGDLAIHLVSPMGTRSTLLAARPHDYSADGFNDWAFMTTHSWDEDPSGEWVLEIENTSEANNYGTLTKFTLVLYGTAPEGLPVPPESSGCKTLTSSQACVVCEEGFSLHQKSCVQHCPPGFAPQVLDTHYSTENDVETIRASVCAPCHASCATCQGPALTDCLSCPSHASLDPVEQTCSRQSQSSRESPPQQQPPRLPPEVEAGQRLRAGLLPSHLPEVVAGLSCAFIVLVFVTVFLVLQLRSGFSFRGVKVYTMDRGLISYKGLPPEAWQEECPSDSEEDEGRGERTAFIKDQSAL
procedure details: furin cleavage Z-score vs untreated control; higher = more cleavage, active = 3.5 or more, inactive = 1 or less, 8 variable residues between constant flanks;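 note: purified furin at 1:10 enzyme:substrate in 50 mM HEPES pH 7.5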
test parameters: 30 min
The other results are listed elsewhere or left out. The hit rate among all sequences tested is not known here.
reported property: furin cleavage Z-score
One number for each entry.

Here's what some known entries look like.
{"polymer sequence": "CAVVCYSMSYAGNASASA [HC97]", "furin cleavage Z-score": 1.4}
{"polymer sequence": "CAVCCCSMSYAGNASASA [HC2020]", "furin cleavage Z-score": 1.02}

Below are 7 sequences. Give each one its furin cleavage Z-score.
1. CAWLEVVTSTAGNASASA [HC2268]
2. CARRKRKKEVAGNASASA [FS-2296]
3. CATPPRERRGAGNASASA [FS-1095]
4. CAKRLRRRREAGNASASA [FS-1224]
5. CARRKRHSEHAGNASASA [FS-3166]
6. CARRKRYISQAGNASASA [FS-1780]
7. CAVIPVRRRGAGNASASA [HC730]

Reply text:
1: 1.63; 2: 1.21; 3: -0.163; 4: 4.7; 5: 8.79; 6: 9.13; 7: -0.326

Answer for every listed entry: what is its furin cleavage Z-score? The entries follow.
1. CAAILSPGALAGNASASA [HC1103]
2. CAEVVTSQWVAGNASASA [HC2222]
3. CARAARFAKTAGNASASA [FS-1885]

Reply text:
1: -0.137; 2: 0.204; 3: 0.00762

Your task in this section: give furin cleavage Z-score for each listed record.
1. CALLSRPLRGAGNASASA [FS-1229]
2. CARKAVTHINAGNASASA [HC1427]

Reply text:
1: -1.05; 2: 0.0109

Provide reported furin cleavage Z-score for each item, in the same order as listed.
1. CAVVCCSMSSAGNASASA [HC2097]
2. CAEVVTSPWVAGNASASA [HC2219]
3. CASRDRRRREAGNASASA [FS-195]
4. CANTLTCYIKAGNASASA [HC1516]
5. CALEECSQHLAGNASASA [HC1665]
6. CARRSRNVSTAGNASASA [FS-2083]

Reply text:
1: -1.81; 2: 0.0529; 3: 7.22; 4: -0.828; 5: 0.0701; 6: 5.4

Inquiry: Recorded furin cleavage Z-score of CARAARRAAGAGNASASA [FS-1678] , please.
Reply text: -1.33
